# assay-comment: Drug metabolism study in rats, oral administration
# condition-set: rat, plasma, po, 5 mg/kg
readout: AUC(0-t)

> print(dat)
                              sample.smiles  reported.value
1  C[C@@H](Nc1ccn2ncc(-c3cn[nH]c3)c2n1)c1cc(F)ccc1OCC(F)(F)F    1460 ng·h/mL
2  C[C@@H](Nc1ccn2ncc(-c3cnn(C)c3)c2n1)c1cc(F)ccc1OCC(F)F     533 ng·h/mL
3  C[C@@H](Nc1ccn2ncc(-c3cnn(CCO)c3)c2n1)c1cc(F)ccc1OCC(F)F     479 ng·h/mL
4  C[C@@H](Nc1ccn2ncc(-c3cn[nH]c3)c2n1)c1cc(F)ccc1OCC(F)F     650 ng·h/mL

## Task Report AUC(0-t) for C[C@@H](Nc1ccn2ncc(-c3cnn(CCO)c3)c2n1)c1cc(F)ccc1OCC(F)(F)F
## Result 816 ng·h/mL
